- System: male CD1 mice
- test-details: Predictive sedation-hypnosis test in mice (motor activity, crossings)
- Assay type: in vivo
- condition: single equimolecular intraperitoneal dose, crossings over 30 min after dosing (first 5 min discarded) versus control animals
// NB: equality with 80% counts as no; only % Inhibition Motor Activity strictly below is yes

compound | tested-system | label-value
CCN(C(C)=O)c1cccc(-c2ccnc3c([N+](=O)[O-])cnn23)c1 | male CD1 mice | yes

Is % Inhibition Motor Activity strictly under 80% for the entry CN(c1cccc(-c2ccnc3c([N+](=O)[O-])cnn23)c1)S(C)(=O)=O ? yes

Is % Inhibition Motor Activity strictly under 80% for the entry C#CCN(c1cccc(-c2ccnc3c([N+](=O)[O-])cnn23)c1)S(C)(=O)=O ? no

Is % Inhibition Motor Activity strictly under 80% for the entry CCN(C(C)=O)c1cccc(-c2ccnc3c(C#N)cnn23)c1 [Zaleplon, zaleplon, reference compound] ? yes

* * *

Catalogue of compounds with associated melting point

In the examples that follow, each entry is paired with its recorded melting point.
compound | outcome-measure | measured-value
CCCCN(c1cccc(-c2ccnc3c([N+](=O)[O-])cnn23)c1)S(=O)(=O)c1ccc(OC)cc1 | melting point | 189 to 190 °C
CCCN(c1cccc(-c2ccnc3c([N+](=O)[O-])cnn23)c1)S(C)(=O)=O [Example 25] | melting point | 165 to 167 °C
CCN(c1cccc(-c2ccnc3c([N+](=O)[O-])cnn23)c1)S(=O)(=O)c1ccc(OC)cc1 | melting point | 209 to 211 °C
COc1ccc(S(=O)(=O)N(C)c2cccc(-c3ccnc4c([N+](=O)[O-])cnn34)c2)cc1 | melting point | 205 to 206 °C
O=[N+]([O-])c1cnn2c(-c3ccc(C(F)(F)F)cc3)ccnc12 | melting point | 191 to 193 °C

Proceed to the following item.
Indicate its recorded melting point; the compound in question is O=[N+]([O-])c1cnn2c(-c3ccco3)ccnc12 235 to 237 °C

* * *

Catalogue of compounds with associated Ki
- tested-system: α1-GABAA receptor (Rattus norvegicus)
- Construct: the cerebellum (tissue that mostly contains α1-GABAA receptor); from tissue; host or cells: rat cerebellum membranes
- test-details: Ligand-binding assay, radiolabeled flumazenil competition, cerebellum membranes
Please respond with the number in µM and leave the unit unwritten.

query-smiles | tested-system | units-symbol | Ki
CC(=O)N(C)c1cccc(-c2ccnc3c([N+](=O)[O-])cnn23)c1 | α1-GABAA receptor (Rattus norvegicus) | µM | 0.0968

Indicate its recorded Ki; the compound in question is CN(c1cccc(-c2ccnc3c([N+](=O)[O-])cnn23)c1)S(C)(=O)=O 0.0283

Indicate its recorded Ki; the compound in question is CCN(c1cccc(-c2ccnc3c([N+](=O)[O-])cnn23)c1)S(C)(=O)=O 0.0111

* * *

outcome-measure: melting point

In the examples that follow, each entry is paired with its recorded melting point.
query-smiles | melting point
O=[N+]([O-])c1cnn2c(-c3ccccc3C(F)(F)F)ccnc12 | 195 to 197 °C
O=C1CCCN1c1cccc(-c2ccnc3c([N+](=O)[O-])cnn23)c1 | 226 to 228 °C

Indicate its recorded melting point; the compound in question is CCCN(c1cccc(-c2ccnc3c([N+](=O)[O-])cnn23)c1)S(=O)(=O)c1ccccc1 154 to 156 °C
